Tested on: Streptococcus sp. group D X66
Assay: MIC, standard agar-dilution assay
Assay type: cell-based
Conditions: Streptococcus, read-out: minimal inhibitory concentration (MIC)
MIC listing for selected molecules.
Quantity name: MIC (µg/mL)

{"Test smiles": "CC[C@H]1OC(=O)[C@H](C)[C@@H](O[C@H]2C[C@@](C)(OC)[C@@H](O)[C@H](C)O2)[C@H](C)[C@@H](O[C@@H]2O[C@H](C)C[C@H](N(C)C)[C@H]2O)[C@](C)(O)C[C@@H](C)[C@H](N(C)C(C)C)[C@H](C)[C@@H](O)[C@]1(C)O", "Unit of measurement": "µg/mL", "Readout number": 2}
{"Test smiles": "CC[C@H]1OC(=O)[C@H](C)[C@@H](O[C@H]2C[C@@](C)(OC)[C@@H](O)[C@H](C)O2)[C@H](C)[C@@H](O[C@@H]2O[C@H](C)C[C@H](N(C)C)[C@H]2O)[C@](C)(O)C[C@@H](C)[C@H]2[C@H](C)[C@@H](OCN2C2CCCC2)[C@]1(C)O", "Unit of measurement": "µg/mL", "Readout number": 0.5}

* * *

Test system: Staphylococcus aureus X400
Experiment: MIC, standard agar-dilution assay
Assay type: cell-based
Settings: Staphylococcus aureus, X400; Table IV; methicillin-resistant strain; inducibly erythromycin-resistant; read-out: minimal inhibitory concentration (MIC)
MIC listing for selected compounds.

{"Compound": "CC[C@H]1OC(=O)[C@H](C)[C@@H](O[C@H]2C[C@@](C)(OC)[C@@H](O)[C@H](C)O2)[C@H](C)[C@@H](O[C@@H]2O[C@H](C)C[C@H](N(C)C)[C@H]2O)[C@](C)(O)C[C@@H](C)[C@H](NCCCOC)[C@H](C)[C@@H](O)[C@]1(C)O [Compound 23]", "MIC": "> 128 µg/mL"}
{"Compound": "CC[C@H]1OC(=O)[C@H](C)[C@@H](O[C@H]2C[C@@](C)(OC)[C@@H](O)[C@H](C)O2)[C@H](C)[C@@H](O[C@@H]2O[C@H](C)C[C@H](N(C)C)[C@H]2O)[C@](C)(O)C[C@@H](C)[C@H](NCCC2=C(C)CCCC2(C)C)[C@H](C)[C@@H](O)[C@]1(C)O [Compound 30]", "MIC": "32 µg/mL"}
{"Compound": "CC[C@H]1OC(=O)[C@H](C)[C@@H](O[C@H]2C[C@@](C)(OC)[C@@H](O)[C@H](C)O2)[C@H](C)[C@@H](O[C@@H]2O[C@H](C)C[C@H](N(C)C)[C@H]2O)[C@](C)(O)C[C@@H](C)[C@H](NCCOCCOC)[C@H](C)[C@@H](O)[C@H]1C [Compound 49]", "MIC": "> 128 µg/mL"}
{"Compound": "CCOC(=O)C1CC1CN[C@@H]1[C@H](C)[C@@H](O)[C@](C)(O)[C@@H](CC)OC(=O)[C@H](C)[C@@H](O[C@H]2C[C@@](C)(OC)[C@@H](O)[C@H](C)O2)[C@H](C)[C@@H](O[C@@H]2O[C@H](C)C[C@H](N(C)C)[C@H]2O)[C@](C)(O)C[C@H]1C (stereo partly drawn) [Compound 27]", "MIC": "> 128 µg/mL"}
{"Compound": "C=CCCCCCCCCCN[C@@H]1[C@H](C)[C@@H](O)[C@](C)(O)[C@@H](CC)OC(=O)[C@H](C)[C@@H](O[C@H]2C[C@@](C)(OC)[C@@H](O)[C@H](C)O2)[C@H](C)[C@@H](O[C@@H]2O[C@H](C)C[C@H](N(C)C)[C@H]2O)[C@](C)(O)C[C@H]1C [Compound 28]", "MIC": "8 µg/mL"}
{"Compound": "CC[C@H]1OC(=O)[C@H](C)[C@@H](O[C@H]2C[C@@](C)(OC)[C@@H](O)[C@H](C)O2)[C@H](C)[C@@H](O[C@@H]2O[C@H](C)C[C@H](N(C)C)[C@H]2O)[C@](C)(O)C[C@@H](C)[C@H](NCC2CC=CCC2)[C@H](C)[C@@H](O)[C@]1(C)O (stereo partly drawn) [Compound 15]", "MIC": "> 128 µg/mL"}

* * *

System: Escherichia coli EC14
Test: MIC, standard agar-dilution assay
Format: cell-based
Conditions: Escherichia coli, EC14; Table IV; agar dilution; read-out: minimal inhibitory concentration (MIC)

{"Test smiles": "CC[C@H]1OC(=O)[C@H](C)[C@@H](O[C@H]2C[C@@](C)(OC)[C@@H](O)[C@H](C)O2)[C@H](C)[C@@H](O[C@@H]2O[C@H](C)C[C@H](N(C)C)[C@H]2O)[C@](C)(O)C[C@@H](C)[C@H](NCCCC#N)[C@H](C)[C@@H](O)[C@]1(C)O", "MIC": "64 µg/mL"}
{"Test smiles": "CCCCCCCCCCN[C@@H]1[C@H](C)[C@@H](O)[C@@H](C)[C@@H](CC)OC(=O)[C@H](C)[C@@H](O[C@H]2C[C@@](C)(OC)[C@@H](O)[C@H](C)O2)[C@H](C)[C@@H](O[C@@H]2O[C@H](C)C[C@H](N(C)C)[C@H]2O)[C@](C)(O)C[C@H]1C", "MIC": "> 128 µg/mL"}
{"Test smiles": "CCCCCCCCCCN[C@@H]1[C@H](C)[C@@H](O)[C@](C)(O)[C@@H](CC)OC(=O)[C@H](C)[C@@H](O[C@H]2C[C@@](C)(OC)[C@@H](O)[C@H](C)O2)[C@H](C)[C@@H](O[C@@H]2O[C@H](C)C[C@H](N(C)C)[C@H]2O)[C@](C)(O)C[C@H]1C", "MIC": "> 128 µg/mL"}

* * *

System: Streptococcus sp. group D X66
Test: MIC, standard agar-dilution assay
Assay type: cell-based
Settings: Streptococcus, read-out: minimal inhibitory concentration (MIC)

{"Test smiles": "CCCN[C@@H]1[C@H](C)[C@@H](O)[C@@H](C)[C@@H](CC)OC(=O)[C@H](C)[C@@H](O[C@H]2C[C@@](C)(OC)[C@@H](O)[C@H](C)O2)[C@H](C)[C@@H](O[C@@H]2O[C@H](C)C[C@H](N(C)C)[C@H]2O)[C@](C)(O)C[C@H]1C", "MIC [µg/mL]": 0.125}
{"Test smiles": "CCCCCCCCCCN[C@@H]1[C@H](C)[C@@H](O)[C@](C)(O)[C@@H](CC)OC(=O)[C@H](C)[C@@H](O[C@H]2C[C@@](C)(OC)[C@@H](O)[C@H](C)O2)[C@H](C)[C@@H](O[C@@H]2O[C@H](C)C[C@H](N(C)C)[C@H]2O)[C@](C)(O)C[C@H]1C", "MIC [µg/mL]": 0.25}

* * *

Test system: Streptococcus sp. group D 2041
Experiment: MIC, standard agar-dilution assay
Format: cell-based
Settings: Streptococcus, read-out: minimal inhibitory concentration (MIC)
MIC listing for selected compounds.

{"Test smiles": "CC[C@H]1OC(=O)[C@H](C)[C@@H](O[C@H]2C[C@@](C)(OC)[C@@H](O)[C@H](C)O2)[C@H](C)[C@@H](O[C@@H]2O[C@H](C)C[C@H](N(C)C)[C@H]2O)[C@](C)(O)C[C@@H](C)[C@H](NCC2CCCCCCC2)[C@H](C)[C@@H](O)[C@]1(C)O", "Unit of measurement": "µg/mL", "MIC": 1}
{"Test smiles": "CC[C@H]1OC(=O)[C@H](C)[C@@H](O[C@H]2C[C@@](C)(OC)[C@@H](O)[C@H](C)O2)[C@H](C)[C@@H](O[C@@H]2O[C@H](C)C[C@H](N(C)C)[C@H]2O)[C@](C)(O)C[C@@H](C)[C@H](N2CCCCC2)[C@H](C)[C@@H](O)[C@]1(C)O", "Unit of measurement": "µg/mL", "MIC": 128}
{"Test smiles": "CC[C@H]1OC(=O)[C@H](C)[C@@H](O[C@H]2C[C@@](C)(OC)[C@@H](O)[C@H](C)O2)[C@H](C)[C@@H](O[C@@H]2O[C@H](C)C[C@H](N(C)C)[C@H]2O)[C@](C)(O)C[C@@H](C)[C@H](NCCOC)[C@H](C)[C@@H](O)[C@]1(C)O", "Unit of measurement": "µg/mL", "MIC": 8}

* * *

MIC listing for selected compounds.
Test system: Escherichia coli EC14
Assay: MIC, standard agar-dilution assay
Format: cell-based
Conditions: Escherichia coli, EC14; Table IV; agar dilution; read-out: minimal inhibitory concentration (MIC)

{"Test smiles": "CCCCCCCCCCCCN[C@@H]1[C@H](C)[C@@H](O)[C@](C)(O)[C@@H](CC)OC(=O)[C@H](C)[C@@H](O[C@H]2C[C@@](C)(OC)[C@@H](O)[C@H](C)O2)[C@H](C)[C@@H](O[C@@H]2O[C@H](C)C[C@H](N(C)C)[C@H]2O)[C@](C)(O)C[C@H]1C", "MIC": "> 128 µg/mL"}
{"Test smiles": "C=CCCCCCCCCCN[C@@H]1[C@H](C)[C@@H](O)[C@](C)(O)[C@@H](CC)OC(=O)[C@H](C)[C@@H](O[C@H]2C[C@@](C)(OC)[C@@H](O)[C@H](C)O2)[C@H](C)[C@@H](O[C@@H]2O[C@H](C)C[C@H](N(C)C)[C@H]2O)[C@](C)(O)C[C@H]1C", "MIC": "> 128 µg/mL"}
{"Test smiles": "CCCCCCCCN[C@@H]1[C@H](C)[C@@H](O)[C@](C)(O)[C@@H](CC)OC(=O)[C@H](C)[C@@H](O[C@H]2C[C@@](C)(OC)[C@@H](O)[C@H](C)O2)[C@H](C)[C@@H](O[C@@H]2O[C@H](C)C[C@H](N(C)C)[C@H]2O)[C@](C)(O)C[C@H]1C", "MIC": "> 128 µg/mL"}
{"Test smiles": "CCCN[C@@H]1[C@H](C)[C@@H](O)[C@@H](C)[C@@H](CC)OC(=O)[C@H](C)[C@@H](O[C@H]2C[C@@](C)(OC)[C@@H](O)[C@H](C)O2)[C@H](C)[C@@H](O[C@@H]2O[C@H](C)C[C@H](N(C)C)[C@H]2O)[C@](C)(O)C[C@H]1C", "MIC": "64 µg/mL"}
